// provenance: patent US5811512A

Reported IC50 for target or system human neurokinin-1 receptor (NK1R) (Homo sapiens, UniProt P25103), by entry.
observable: IC50 (nM)

{"molecule": "NCCCCCOC[C@H]1O[C@@H](OCCc2c[nH]c3ccccc23)[C@H](OCc2ccccc2)[C@@H](OCc2ccccc2)[C@@H]1OCc1ccccc1 [Compound 1]", "reading": 120}
{"molecule": "CC(=O)NCCCCCOC[C@H]1O[C@@H](OCCc2cn(S(=O)(=O)c3ccccc3)c3ccccc23)[C@H](OCc2ccccc2)[C@@H](OCc2ccccc2)[C@@H]1OCc1ccccc1 [Compound 7]", "reading": 56}
{"molecule": "CO[C@@H]1O[C@H](COCCCCCNC(=O)C(F)(F)F)[C@@H](OCc2ccccc2)[C@H](OCc2ccccc2)[C@H]1OCc1ccccc1 [Compound 13]", "reading": 1000}
